B1: library; numbered along this chain (parent)
chain: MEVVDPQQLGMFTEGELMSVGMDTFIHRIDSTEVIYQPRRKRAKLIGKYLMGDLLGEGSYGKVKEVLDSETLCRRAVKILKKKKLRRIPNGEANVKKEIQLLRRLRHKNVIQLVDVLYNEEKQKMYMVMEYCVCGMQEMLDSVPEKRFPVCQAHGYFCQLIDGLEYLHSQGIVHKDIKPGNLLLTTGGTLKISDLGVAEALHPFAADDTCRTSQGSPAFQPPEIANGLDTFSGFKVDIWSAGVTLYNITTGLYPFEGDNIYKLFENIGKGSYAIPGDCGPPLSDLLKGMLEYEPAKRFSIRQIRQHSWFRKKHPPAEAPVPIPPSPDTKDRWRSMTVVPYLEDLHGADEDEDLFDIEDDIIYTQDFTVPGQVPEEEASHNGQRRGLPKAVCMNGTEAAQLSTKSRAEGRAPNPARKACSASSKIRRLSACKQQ

# Variants of: B1
# Test Protocol: STK11 functional score (HeLa growth suppression), rescaled enrichment; synonymous median = 1, nonsense median = 0 (normalised score)
# Experimental Parameters: with HeLa; variant type: missense
Property: STK11 functional score

* W332S | 1.21
* I111Q | 1.66
* Q112T | 1.27
* Y246Q | 1.11
* L282V | 0.86
* V150C | 0.762
* G171V | 1.25
* L167W | -0.183
* D355A | 0.938
* N226E | 0.0384
* P221G | 1.03
